# target system: Vitamin D3 receptor (Homo sapiens, UniProt P11473)
# Sequence (P11473 whole entry): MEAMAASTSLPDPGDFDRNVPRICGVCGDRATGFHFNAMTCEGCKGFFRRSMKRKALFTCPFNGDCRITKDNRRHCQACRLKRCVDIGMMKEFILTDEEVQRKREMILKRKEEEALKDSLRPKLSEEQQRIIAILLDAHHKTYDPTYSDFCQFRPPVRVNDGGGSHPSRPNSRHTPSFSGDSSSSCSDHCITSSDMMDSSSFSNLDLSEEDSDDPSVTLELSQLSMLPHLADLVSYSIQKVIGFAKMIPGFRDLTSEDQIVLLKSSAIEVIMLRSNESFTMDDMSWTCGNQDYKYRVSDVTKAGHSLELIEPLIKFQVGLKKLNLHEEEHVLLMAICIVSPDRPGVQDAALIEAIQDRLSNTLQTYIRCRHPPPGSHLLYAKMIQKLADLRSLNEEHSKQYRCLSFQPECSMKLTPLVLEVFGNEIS
# assay details: Transactivation of VDR-mediated osteocalcin promoter in human HOS/SF cells after 24 hrs by luciferase reporter gene assay
measured quantity: pEC50
In plain terms, pEC50 is the concentration in mol/L turned into minus its base-10 logarithm.

Noted pEC50 for C=C1/C(=C\C=C2/CCC[C@]3(C)[C@@H]([C@H](C)CCCC(C)(C)O)CC[C@@H]23)C[C@@H](O)[C@H](CCn2ncnn2)[C@@H]1O , tested on Vitamin D3 receptor (Homo sapiens, UniProt P11473): 11.00

Noted pEC50 for C=C1/C(=C\C=C2/CCC[C@]3(C)[C@@H]([C@H](C)CCCC(C)(C)O)CC[C@@H]23)C[C@@H](O)[C@H](CCn2ccnc2)[C@@H]1O , tested on Vitamin D3 receptor (Homo sapiens, UniProt P11473): 9.17

Noted pEC50 for C=C1/C(=C\C=C2/CCC[C@]3(C)[C@@H]([C@H](C)CCCC(C)(C)O)CC[C@@H]23)C[C@@H](O)[C@H](CCn2cnnn2)[C@@H]1O , tested on Vitamin D3 receptor (Homo sapiens, UniProt P11473): 9.54

Noted pEC50 for C=C1/C(=C\C=C2/CCC[C@]3(C)[C@@H]([C@H](C)CCCC(C)(C)O)CC[C@@H]23)C[C@@H](O)[C@H](CCn2ccnn2)[C@@H]1O , tested on Vitamin D3 receptor (Homo sapiens, UniProt P11473): 9.68

Noted pEC50 for C=C1/C(=C\C=C2/CCC[C@]3(C)[C@@H]([C@H](C)CCCC(C)(C)O)CC[C@@H]23)C[C@@H](O)[C@H](CCn2cncn2)[C@@H]1O , tested on Vitamin D3 receptor (Homo sapiens, UniProt P11473): 9.82

Noted pEC50 for C=C1/C(=C\C=C2/CCC[C@]3(C)[C@@H]([C@H](C)CCCC(C)(C)O)CC[C@@H]23)C[C@@H](O)[C@H](CCn2nccn2)[C@@H]1O , tested on Vitamin D3 receptor (Homo sapiens, UniProt P11473): 10.36
